Cited source: DBAASP

These records show MIC for Bacillus subtilis 168.
All answers are understood in µM, so give the number only.

Worked set:
record_smiles=CC[C@H](C)[C@H](NC(=O)[C@H](CC(C)C)NC(=O)[C@H](Cc1cnc[nH]1)NC(=O)CNC(=O)[C@H](CC(C)C)NC(=O)[C@@H](NC(=O)[C@H](CCCCN)NC(=O)[C@H](CO)NC(=O)[C@H](Cc1c[nH]c2ccccc12)NC(=O)[C@H](CCSC)NC(=O)CN)[C@@H](C)CC)C(N)=O measured_target="Bacillus subtilis 168" unit_name=µM recorded_measurement=3.5
record_smiles=CC[C@H](C)[C@H](NC(=O)CN)C(=O)N[C@@H](CC(C)C)C(=O)N[C@@H](CO)C(=O)N[C@@H](CO)C(=O)N[C@@H](Cc1c[nH]c2ccccc12)C(=O)N[C@@H](CC(C)C)C(=O)N[C@@H](CCCCN)C(=O)N[C@@H](CCCCN)C(=O)N[C@@H](CC(C)C)C(=O)N[C@@H](CCCCN)C(=O)N[C@@H](CCCCN)C(=O)N[C@H](C(=O)N[C@H](C(=O)N[C@@H](C)C(=O)N[C@@H](CCCCN)C(N)=O)[C@@H](C)CC)[C@@H](C)CC measured_target="Bacillus subtilis 168" unit_name=µM recorded_measurement=7

Now look at this one.
`CSCC[C@H](NC(=O)CNC(=O)[C@H](Cc1ccccc1)NC(=O)[C@H](C)N)C(=O)N[C@@H](C)C(=O)N[C@@H](CC(C)C)C(=O)N[C@@H](CCCCN)C(=O)N[C@@H](CC(C)C)C(=O)N[C@@H](CC(C)C)C(=O)N[C@@H](CCCCN)C(=O)N[C@@H](CCCCN)C(=O)N[C@H](C(=O)N[C@@H](CC(C)C)C(N)=O)C(C)C` has a reported MIC of 1.3

----------
# Tested on: Staphylococcus aureus
reported_metric: MIC (µM)
All answers are understood in µM, so give the number only.

The reported Staphylococcus aureus MIC of `CC(C)C[C@H](NC(=O)[C@H](CCCCN)NC(=O)[C@H](Cc1ccccc1)NC(=O)[C@H](CC(C)C)NC(=O)[C@H](CC(C)C)NC(=O)[C@H](CCCCN)NC(=O)[C@@H](N)CCCCN)C(=O)N[C@@H](CCCCN)C(=O)N[C@@H](Cc1ccccc1)C(=O)N[C@@H](CCCCN)C(N)=O` is 38.7

----------
These records show MIC for Staphylococcus aureus.
All answers are understood in µM, so give the number only.

record_smiles=CC[C@H](C)[C@H](NC(=O)[C@H](CC(C)C)NC(=O)[C@H](C)NC(=O)[C@@H]1CCCN1C(=O)[C@H](CC(C)C)NC(=O)CN)C(=O)N[C@@H](CO)C(=O)N[C@@H](Cc1c[nH]c2ccccc12)C(=O)N[C@H](C(=O)N[C@@H](CCCCN)C(=O)N[C@@H](CCCN=C(N)N)C(=O)N[C@@H](CCCCN)C(=O)N[C@@H](CCCN=C(N)N)C(=O)N[C@@H](CC(C)C)C(N)=O)[C@@H](C)CC reported_metric=MIC recorded_measurement=1.57

Now look at this one.
The reported Staphylococcus aureus MIC of `CC[C@H](C)[C@H](NC(=O)[C@H](Cc1c[nH]c2ccccc12)NC(=O)[C@H](CCCN=C(N)N)NC(=O)[C@H](CCC(N)=O)NC(=O)[C@@H](NC(=O)[C@H](Cc1c[nH]c2ccccc12)NC(=O)[C@H](CCCN=C(N)N)NC(=O)[C@@H](N)CCCN=C(N)N)C(C)C)C(=O)N[C@@H](CCCN=C(N)N)C(=O)N[C@@H](CCCN=C(N)N)C(=O)N[C@@H](Cc1c[nH]c2ccccc12)C(=O)N[C@@H](CCCN=C(N)N)C(=O)N[C@@H](CCCCN)C(=O)N[C@@H](Cc1c[nH]c2ccccc12)C(=O)N[C@H](C(=O)O)C(C)C` is 20

----------
These records show MIC for Escherichia coli SBS 363.
All answers are understood in µM, so give the number only.

Worked set:
compound="CC(C)[C@H](NC(=O)[C@H](C)NC(=O)[C@@H]1CCCN1C(=O)[C@H](Cc1ccc(O)cc1)NC(=O)[C@@H](N)CCCN=C(N)N)C(=O)NCC(=O)N[C@@H](Cc1ccc(O)cc1)C(=O)N[C@H](C(=O)O)[C@@H](C)O [RYPAVGYT]" recorded_measurement=6.26
compound="CC(C)C[C@H](NC(=O)[C@H](C)NC(=O)CNC(=O)[C@H](CC(C)C)NC(=O)[C@@H](N)Cc1ccccc1)C(=O)N[C@@H](Cc1c[nH]c2ccccc12)C(=O)N[C@@H](CC(N)=O)C(=O)N[C@H](C(=O)N[C@@H](C)C(=O)N[C@@H](CCCCN)C(=O)N[C@@H](CCCN=C(N)N)C(=O)N[C@H](C(=O)N[C@@H](Cc1ccccc1)C(N)=O)C(C)C)C(C)C [FLGALWNVAKRVF]" recorded_measurement=1.6

CC(C)C[C@H](NC(=O)[C@H](C)NC(=O)CNC(=O)[C@H](CC(C)C)NC(=O)[C@@H](N)Cc1ccccc1)C(=O)N[C@@H](Cc1c[nH]c2ccccc12)C(=O)N[C@@H](CC(N)=O)C(=O)N[C@H](C(=O)N[C@@H](CC(C)C)C(=O)N[C@@H](CCCCN)C(=O)N[C@@H](CO)C(=O)N[C@H](C(=O)N[C@@H](Cc1ccccc1)C(N)=O)C(C)C)C(C)C [FLGALWNVLKSVF] has a reported MIC of 0.8

----------
# Test system: Pseudomonas aeruginosa ATCC 27853
# measurement_notes: ≥ marks a high value that may be exact or a test limit, other limits are often not marked, values filed in µg/mL are converted to µM
reported_metric: MIC (µM)
All answers are understood in µM, so give the number only.

Worked set:
record_smiles=CC[C@H](C)[C@H](NC(=O)CN)C(=O)N[C@@H](CCSC)C(=O)N[C@@H](CO)C(=O)N[C@@H](CO)C(=O)N[C@@H](CC(C)C)C(=O)N[C@@H](CCSC)C(=O)N[C@@H](CCCCN)C(=O)N[C@@H](CCCCN)C(=O)N[C@@H](CC(C)C)C(=O)N[C@@H](C)C(=O)N[C@@H](C)C(=O)N[C@@H](Cc1cnc[nH]1)C(=O)N[C@H](C(=O)N[C@@H](CCCCN)C(=O)N[C@@H](CCCCN)C(N)=O)[C@@H](C)CC measured_target="Pseudomonas aeruginosa ATCC 27853" recorded_measurement=23
record_smiles=CC[C@H](C)[C@H](NC(=O)[C@H](CCCCN)NC(=O)[C@H](CCCCN)NC(=O)[C@@H](N)CCC(N)=O)C(=O)N[C@@H](CCCN=C(N)N)C(=O)N[C@H](C(=O)N[C@@H](CCCN=C(N)N)C(=O)N[C@@H](CC(C)C)C(=O)N[C@@H](C)C(=O)N[C@@H](C)C(=O)O)C(C)C measured_target="Pseudomonas aeruginosa ATCC 27853" recorded_measurement=13.5
record_smiles=CC(C)C[C@H](NC(=O)[C@H](CCCCN)NC(=O)[C@@H]1CCCN1C(=O)[C@H](CC(C)C)NC(=O)[C@H](CC(C)C)NC(=O)[C@@H]1CCCN1C(=O)[C@H](CCCCN)NC(=O)[C@H](CC(C)C)NC(=O)[C@H](CCCCN)NC(=O)[C@@H]1CCCN1C(=O)[C@H](CC(C)C)NC(=O)[C@H](CC(C)C)NC(=O)[C@H](CC(C)C)NC(=O)[C@H](CCCCN)NC(=O)[C@H](CC(C)C)NC(=O)[C@H](CC(C)C)NC(=O)[C@H](CCCCN)NC(=O)[C@@H](N)Cc1ccc(O)cc1)C(N)=O measured_target="Pseudomonas aeruginosa ATCC 27853" recorded_measurement=19.9
record_smiles=CC[C@H](C)[C@H](NC(=O)[C@H](C)NC(=O)[C@H](CCCCN)NC(=O)[C@@H]1CCCN1C(=O)[C@@H](NC(=O)[C@H](CC(C)C)NC(=O)[C@H](CCCCN)NC(=O)[C@H](Cc1ccccc1)NC(=O)[C@H](CC(C)C)NC(=O)[C@@H](N)Cc1ccccc1)[C@@H](C)CC)C(=O)N[C@@H](CCCCN)C(=O)N[C@@H](CCCCN)C(=O)N[C@@H](CC(C)C)C(=O)N[C@H](C(=O)N[C@@H](CO)C(=O)N[C@@H](CCCCN)C(=O)N[C@@H](Cc1ccccc1)C(=O)N[C@@H](CCCCN)C(=O)O)[C@@H](C)CC measured_target="Pseudomonas aeruginosa ATCC 27853" recorded_measurement=35
record_smiles=CC(C)C[C@H](NC(=O)[C@H](CCCN=C(N)N)NC(=O)[C@H](C)NC(=O)[C@@H](NC(=O)[C@H](CCCN=C(N)N)NC(=O)[C@H](CCCN=C(N)N)NC(=O)[C@H](CC(C)C)NC(=O)[C@@H](N)CC(C)C)C(C)C)C(=O)N[C@@H](CC(C)C)C(=O)N[C@@H](CCCCN)C(=O)N[C@@H](CCCN=C(N)N)C(=O)N[C@@H](Cc1ccccc1)C(=O)N[C@@H](C)C(=O)N[C@@H](CCCCN)C(=O)O measured_target="Pseudomonas aeruginosa ATCC 27853" recorded_measurement=1.15

`NCCCC[C@H](NC(=O)CNC(=O)CNC(=O)[C@H](CCCN=C(N)N)NC(=O)[C@H](CS)NC(=O)[C@H](Cc1ccc(O)cc1)NC(=O)[C@H](Cc1c[nH]c2ccccc12)NC(=O)[C@H](CCCN=C(N)N)NC(=O)[C@H](Cc1c[nH]c2ccccc12)NC(=O)[C@H](Cc1cnc[nH]1)NC(=O)CNC(=O)CN)C(N)=O` has a reported MIC of 11

`CC(C)C[C@H](NC(=O)[C@H](C)NC(=O)[C@H](C)NC(=O)[C@H](CC(C)C)NC(=O)[C@H](CC(N)=O)NC(=O)[C@@H](NC(=O)[C@@H](NC(=O)[C@H](CC(C)C)NC(=O)[C@H](CCCCN)NC(=O)[C@H](CCCCN)NC(=O)[C@@H](NC(=O)[C@@H](NC(=O)[C@@H](NC(=O)[C@H](CC(C)C)NC(=O)[C@H](Cc1ccccc1)NC(=O)[C@@H](N)CO)[C@@H](C)O)[C@@H](C)O)C(C)C)C(C)C)[C@@H](C)O)C(N)=O` has a reported MIC of 64

`CC[C@H](C)[C@H](NC(=O)[C@@H](N)CCCCN)C(=O)N[C@@H](C)C(=O)N[C@@H](CC(C)C)C(=O)N[C@@H](CCCCN)C(=O)N[C@@H](C)C(=O)N[C@@H](CC(C)C)C(=O)N[C@@H](CCCCN)C(=O)N[C@@H](C)C(=O)N[C@@H](CC(C)C)C(=O)N[C@@H](CCCCN)C(=O)N[C@@H](C)C(=O)N[C@@H](CC(C)C)C(=O)NCC(=O)N[C@@H](CCCCN)C(=O)N[C@@H](C)C(=O)N[C@@H](CC(C)C)C(=O)N[C@@H](CCCCN)C(=O)N[C@@H](C)C(=O)N[C@@H](CC(C)C)C(N)=O` has a reported MIC of 11.3
